Target: glucosylceramide synthase (GCS) (Homo sapiens (Human))
Sequence (Q16739 whole entry, looked up): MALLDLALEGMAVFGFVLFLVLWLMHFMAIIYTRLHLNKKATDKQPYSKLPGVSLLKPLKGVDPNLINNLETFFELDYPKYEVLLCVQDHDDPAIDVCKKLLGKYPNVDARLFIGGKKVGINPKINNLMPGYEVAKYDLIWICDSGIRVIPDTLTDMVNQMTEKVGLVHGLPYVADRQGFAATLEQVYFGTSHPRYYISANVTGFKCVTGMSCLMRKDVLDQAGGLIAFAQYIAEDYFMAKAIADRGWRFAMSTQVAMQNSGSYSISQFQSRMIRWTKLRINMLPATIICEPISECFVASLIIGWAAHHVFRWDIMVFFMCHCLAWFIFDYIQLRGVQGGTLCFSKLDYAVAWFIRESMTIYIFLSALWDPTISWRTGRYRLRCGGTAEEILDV
Experiment: Evaluation of inhibitory activities against GCS (enzyme reaction with A549 cell lysate, NBD C6-ceramide, HPLC fluorescence)
Conditions: GCS activity in A549 cell lysate, 37° C. for 90 minutes
measured-metric: log10 IC50 (log10 of the value in nM)
Transform log10 | Measure IC50 | Unit nM

Query: Fill in: log10 IC50 of CCc1cccc(-c2ccc3c(c2)CCC(C)(C)C3NC(=O)O[C@@H]2CN3CCC2CC3)c1 (stereo partly drawn) [Example 127] is ___
Result: 0.28

Query: COCCOc1cccc(-c2ccc3c(c2)CCC2(CC2)C3NC(=O)O[C@@H]2CN3CCC2CC3)c1 (stereo partly drawn) [Example 195] , same question.
Result: 0.73

Query: COCCOc1ccc(-c2ccc3c(c2)C(NC(=O)O[C@@H]2CN4CCC2CC4)CCC3)cc1 (stereo partly drawn) [Example 79] , same question.
Result: 1.11

More entries:
Query: Fill in: log10 IC50 of CC1(C)CCc2cc(-c3cc(F)cc(F)c3)ccc2C1NC(=O)O[C@@H]1CN2CCC1CC2 (stereo partly drawn) [Example 104] is ___
Result: 0.35

Query: O=C(NC1c2ccc(-c3ccc(C4CC4)cc3)cc2CCC12CC2)O[C@@H]1CN2CCC1CC2 (stereo partly drawn) [Example 226] , same question.
Result: -0.03

Query: CC1(C)CCc2cc(-c3ccccc3Cl)ccc2C1NC(=O)O[C@@H]1CN2CCC1CC2 (stereo partly drawn) [Example 95] , same question.
Result: -0.07

Query: O=C(NC1c2cc(-c3ccccc3OC(F)(F)F)ccc2CCC12CC2)O[C@@H]1CN2CCC1CC2 (stereo partly drawn) [Example 182] , same question.
Result: 1.08

Query: CC(C)(C)c1cccc(-c2ccc3c(c2)CCC(C)(C)C3NC(=O)O[C@@H]2CN3CCC2CC3)c1 (stereo partly drawn) [Example 128] , same question.
Result: 0.45

Query: COCCOc1ccccc1-c1ccc2c(c1)CCCC2NC(=O)O[C@@H]1CN2CCC1CC2 (stereo partly drawn) [Example 29] , same question.
Result: 0.93

Query: CC(C)(C)Oc1cc(-c2cc3c(cc2F)C(NC(=O)O[C@@H]2CN4CCC2CC4)C(C)(C)CC3)ccn1 (stereo partly drawn) [Example 231] , same question.
Result: -0.07

Query: COc1ccc(-c2ccc3c(c2)CCC(C)(C)C3NC(=O)O[C@@H]2CN3CCC2CC3)cc1OC (stereo partly drawn) [Example 137] , same question.
Result: 0.33

Query: O=C(NC1c2ccc(-c3ccc(C(F)(F)F)cc3)cc2CCC12CC2)O[C@@H]1CN2CCC1CC2 (stereo partly drawn) [Example 188] , same question.
Result: 1.21

Query: O=C(NC1CCCc2cc(-c3ccc4c(c3)OC(F)(F)O4)ccc21)O[C@@H]1CN2CCC1CC2 (stereo partly drawn) [Example 42] , same question.
Result: 0.83

Query: COCCOc1ccc(-c2ccc3c(c2)C(NC(=O)O[C@@H]2CN4CCC2CC4)C(C)(C)CC3)cc1 (stereo partly drawn) [Example 165] , same question.
Result: 1.26

Query: CC(C)Cc1ccc(-c2cc3c(cc2F)C(NC(=O)O[C@@H]2CN4CCC2CC4)C(C)(C)CC3)cc1 (stereo partly drawn) [Example 230] , same question.
Result: -0.52
